Listing of recorded TGI by entry.
- Test system: UO-31 renal
- Assay info: NCI tumour cell line growth inhibition, 48 h

Look over these answered cases.
Molecule	TGI
CCN(CC)CCCC(C)Nc1c2cc(OC)cc(C)c2nc2c(C)c(Cl)ccc12 (configuration not stated)	3.1 µM
Cc1cccc2sc(-c3ccc(O)cc3)nc12	26.4 µM
CC(=O)O[C@H]1C(=O)[C@@]2(C)[C@H]([C@H](OC(=O)c3ccccc3)[C@]3(O)C[C@H](OC(=O)[C@H](O)[C@@H](NC(=O)c4ccco4)c4ccccc4)C(C)=C1C3(C)C)[C@]1(OC(C)=O)CO[C@@H]1C[C@@H]2O	> 12.5 µM
COc1cc2c(c(OC)c1OC)-c1ccc(SC)c(=O)cc1[C@@H](O)CC2	> 100 µM
O=C(O)C1[O][Sb][O]C(C(=O)O)C1O (configuration not stated)	> 100 µM

Exercise: Please report the recorded TGI for C#CCN(c1ccc(C(=O)N[C@@H](CCC(=O)N[C@H](CCC(=O)O)C(=O)O)C(=O)O)cc1)C1CCc2cc3nc(CO)[nH]c(=O)c3cc21 (some centres not stated) .
Key: > 100 µM

Exercise: Report TGI for COc1cccc(Nc2nc3ccccc3c3occc23)c1 please.
Key: 27.6 µM

* * *

- Test system: SN12C renal
- Assay info: NCI tumour cell line growth inhibition, 48 h
Here the recorded TGI is given for each entry.

Compound	TGI
Clc1ccccc1-c1nnc2c(Cc3ccccc3)nc3ccccc3n12	> 100 µM
O=C(c1ccc(Cl)cc1)C(O)c1ccc(Cl)cc1 (centres undefined)	> 100 µM
O=C(/C=C/c1ccccc1)Nc1ccccc1SCCCCl	98.5 µM
COc1ccc(S(=O)(=O)N(CC(=O)O)c2ccccc2)cc1	> 100 µM
Cn1cc2ccccc2c1-c1nc(F)nc(Oc2ccc3c(c2)CC[C@@H]2C3CC[C@@]3(C)C2C[C@H](O)[C@@H]3O)n1 (some centres undefined)	31.6 µM

Exercise: Quick one: TGI for CCN(CC)CCCC(C)N/C(=C1\C(=O)NC(=O)\C1=C(/NC(C)CCCN(CC)CC)c1cccc(OC)c1)c1cccc(OC)c1 (centres undefined) ?
Key: 7.03 µM

Exercise: Which TGI is reported for this compound? O=C(CSCC(=O)N/N=C\c1cccc([N+](=O)[O-])c1)N/N=C\c1cccc([N+](=O)[O-])c1
Key: > 100 µM

Exercise: Which TGI value is on record for CCOC(=O)C(C#N)C1=CC(=O)C(=O)c2ccc(O)cc21 (centres undefined) ?
Key: > 100 µM

Exercise: I am curious: what TGI value has been reported for COC(=O)c1cc(NC(=O)Cc2c[nH]c3ccccc23)cn1C ?
Key: > 100 µM

Exercise: Please look up its TGI: CN(C)c1c(C2OC(CO)C(O)C2O)c(=O)c1=O (centres undefined)
Key: > 100 µM

Exercise: What does the record list as TGI for CCCCc1ccc(Nc2nc(OC)c3ncn(C4CC(O)C(CO)O4)c3n2)cc1 (centres undefined) ?
Key: 26.5 µM

Exercise: Which TGI is reported for this compound? C/C=C1/CC(C)C(C)(O)C(=O)OCC2C(O)CN3CCC(OC1=O)C23 (centres undefined)
Key: > 100 µM

Exercise: Return reported TGI; argument: CC(=O)[C@H]1CCC2[C@@H]3CC=C4C[C@@H]([O-])CC[C@]4(C)C3CC[C@@]21C.CC(=O)[C@H]1CCC2[C@@H]3CC=C4C[C@@H]([O-])CC[C@]4(C)C3CC[C@@]21C.CC(=O)[CH-]C(=O)c1ccccc1.CC(=O)[CH-]C(=O)c1ccccc1.Cl.[Ti+4] (some centres undefined)
Key: > 100 µM

Exercise: Form field: reported TGI of CC(=O)NNc1nc(C)c(C(/C=C/c2ccccc2O)=N/N=C(N)N)s1
Key: > 100 µM

Exercise: Field request: TGI | item: Cn1c2ccccc2c(=O)c2c(O)cc3c(c21)C=CC(C)(C)O3
Key: > 25 µM
